# Assay Notes: Solubility of S-2367 in water (Japanese Pharmacopoeia, Dissolution Test, Second Solution)
# Type: physicochemical
# Experimental Conditions: 37 °C, pH 6.8, aqueous buffer
Reported Metric: solubility

Problem: Please supply the value of reported solubility for the item CC(C)(C)S(=O)(=O)N[C@H]1CC[C@H](C(=O)Nc2ccc(C(F)(F)F)cn2)CC1
Solution: ~3.5 µg/mL
